Tested on: HT-29
Test Method Notes: Cytotoxicity against human HT29 cells after 48 hrs by SRB assay
Type: functional, cell-based
Measurement Context: Homo sapiens, HT-29, 48 h

- Compound: "C/C=C1\\NC(=O)[C@H](Cc2ccccc2)NC(=O)[C@@H](C(C)C)NC(=O)[C@@H]([C@H](C)CC)NC(=O)[C@H](NC(=O)[C@H](NC(=O)[C@H](CCCN)NC(=O)[C@H]2CCCN2C(=O)[C@H](NC(=O)[C@@H](NC(=O)[C@@H](NC(=O)[C@H](NC(=O)C2CCC(C)CC2)C(C)C)[C@@H](C)O)C(C)C)C(C)C)[C@H](C)CC)[C@H](C)OC(=O)[C@H](C(C)C)NC1=O (stereo partly specified)"
  Experimental Target: "HT-29"
  Unit Abbrev: "nM"
  GI50: 551

###

Listed below: log10 of CC50 values for each entry.
System: SK-BR-3
Test Method Notes: Cytotoxicity against human SKBR3 cells after 48 hrs by SRB assay
Assay type: functional
Measurement Context: SK-BR-3, 48 h, read-out: LC50 (the source's name)
Reported Metric: log10 of CC50 (log10 of the value in nM)

- Structure String: "C/C=C1\\NC(=O)[C@H](Cc2ccccc2)NC(=O)[C@@H](C(C)C)NC(=O)[C@@H]([C@H](C)CC)NC(=O)[C@H](NC(=O)[C@H](NC(=O)[C@H](CCCN)NC(=O)[C@H]2CCCN2C(=O)[C@H](NC(=O)[C@@H](NC(=O)[C@@H](NC(=O)[C@H](NC(=O)CCCC(C)C)C(C)C)[C@@H](C)O)[C@@H](C)O)C(C)C)[C@H](C)CC)[C@H](C)OC(=O)[C@H](C(C)C)NC1=O"
  log10 of CC50: 3.03
- Structure String: "C/C=C1\\NC(=O)[C@H](Cc2ccccc2)NC(=O)[C@@H](C(C)C)NC(=O)[C@@H]([C@H](C)CC)NC(=O)[C@H](NC(=O)[C@H](NC(=O)[C@H](CCCNC(=O)CCOCCOCCNC(=O)OCC2c3ccccc3-c3ccccc32)NC(=O)[C@H]2CCCN2C(=O)[C@H](NC(=O)[C@@H](NC(=O)[C@@H](NC(=O)[C@H](NC(=O)CCCC(C)C)C(C)C)[C@@H](C)O)C(C)C)C(C)C)[C@H](C)CC)[C@H](C)OC(=O)[C@H](C(C)C)NC1=O"
  log10 of CC50: 2.59
- Structure String: "C/C=C1\\NC(=O)[C@H](Cc2cccs2)NC(=O)[C@@H](C(C)C)NC(=O)[C@@H]([C@H](C)CC)NC(=O)[C@H](NC(=O)[C@H](NC(=O)[C@H](CCCN)NC(=O)[C@H]2CCCN2C(=O)[C@H](NC(=O)[C@@H](NC(=O)[C@@H](NC(=O)[C@H](NC(=O)CC[C@@H](C)CC)C(C)C)[C@@H](C)O)C(C)C)C(C)C)[C@H](C)CC)[C@H](C)OC(=O)[C@H](C(C)C)NC1=O"
  log10 of CC50: 2.04
- Structure String: "C/C=C1\\NC(=O)[C@H](Cc2ccccc2)NC(=O)[C@@H](C(C)C)NC(=O)[C@@H]([C@H](C)CC)NC(=O)[C@H](NC(=O)[C@H](NC(=O)[C@H](CCCN)NC(=O)[C@H]2CCCN2C(=O)[C@H](NC(=O)[C@@H](NC(=O)[C@@H](NC(=O)[C@H](NC(=O)CCCNC(=N)N)C(C)C)[C@@H](C)O)C(C)C)C(C)C)[C@H](C)CC)[C@H](C)OC(=O)[C@H](C(C)C)NC1=O"
  log10 of CC50: 3.44
- Structure String: "C/C=C1\\NC(=O)[C@H](Cc2ccccc2)NC(=O)[C@@H](C(C)C)NC(=O)[C@@H]([C@H](C)CC)NC(=O)[C@H](NC(=O)[C@H](NC(=O)[C@H](CCCN)NC(=O)[C@H]2CCCN2C(=O)[C@H](NC(=O)[C@@H](NC(=O)[C@@H](NC(=O)[C@H](NC(=O)c2ccccc2)C(C)C)[C@@H](C)O)C(C)C)C(C)C)[C@H](C)CC)[C@H](C)OC(=O)[C@H](C(C)C)NC1=O"
  log10 of CC50: 3.14
- Structure String: "C/C=C1\\NC(=O)[C@H](c2ccccc2)NC(=O)[C@@H](C(C)C)NC(=O)[C@@H]([C@H](C)CC)NC(=O)[C@H](NC(=O)[C@H](NC(=O)[C@H](CCCN)NC(=O)[C@H]2CCCN2C(=O)[C@H](NC(=O)[C@@H](NC(=O)[C@@H](NC(=O)[C@H](NC(=O)CCCC(C)C)C(C)C)[C@@H](C)O)C(C)C)C(C)C)[C@H](C)CC)[C@H](C)OC(=O)[C@H](C(C)C)NC1=O"
  log10 of CC50: 2.56
- Structure String: "C/C=C1\\NC(=O)[C@H](Cc2ccccc2)NC(=O)[C@@H](C(C)C)NC(=O)[C@@H]([C@H](C)CC)NC(=O)[C@H](NC(=O)[C@H](NC(=O)[C@H](CCCN)NC(=O)[C@H]2CCCN2C(=O)[C@H](NC(=O)[C@@H](NC(=O)[C@@H](NC(=O)[C@@H](CCCN)NC(=O)CCCC(C)C)[C@@H](C)O)C(C)C)C(C)C)[C@H](C)CC)[C@H](C)OC(=O)[C@H](C(C)C)NC1=O"
  log10 of CC50: 2.96
- Structure String: "C/C=C1\\NC(=O)[C@H](Cc2ccccc2)NC(=O)[C@@H](C(C)C)NC(=O)[C@@H]([C@H](C)CC)NC(=O)[C@H](NC(=O)[C@H](NC(=O)[C@H](CCCN)NC(=O)[C@H]2CCCN2C(=O)[C@H](NC(=O)[C@@H](NC(=O)[C@H](Cc2ccccc2)NC(=O)[C@H](NC(=O)CCCC(C)C)C(C)C)C(C)C)C(C)C)[C@H](C)CC)[C@H](C)OC(=O)[C@H](C(C)C)NC1=O"
  log10 of CC50: 2.55
- Structure String: "C/C=C1\\NC(=O)[C@H](Cc2ccccc2)NC(=O)[C@@H](C(C)C)NC(=O)[C@@H]([C@H](C)CC)NC(=O)[C@H](NC(=O)[C@H](NC(=O)[C@H](CCCN)NC(=O)[C@H]2CCCN2C(=O)[C@H](NC(=O)[C@H](C)NC(=O)[C@@H](NC(=O)[C@H](NC(=O)CCCC(C)C)C(C)C)[C@@H](C)O)C(C)C)[C@H](C)CC)[C@H](C)OC(=O)[C@H](C(C)C)NC1=O"
  log10 of CC50: 3.34
- Structure String: "C/C=C1\\NC(=O)[C@H](Cc2ccccc2)NC(=O)[C@@H](C(C)C)NC(=O)[C@@H]([C@H](C)CC)NC(=O)[C@H](NC(=O)[C@H](NC(=O)[C@H](CCCN)NC(=O)[C@H]2CCCN2C(=O)[C@H](NC(=O)[C@@H](NC(=O)[C@@H](NC(=O)[C@H](NC(=O)CCCCCCCCCCCCCCCCCCC)C(C)C)[C@@H](C)O)C(C)C)C(C)C)[C@H](C)CC)[C@H](C)OC(=O)[C@H](C(C)C)NC1=O"
  log10 of CC50: 2.94
